- test: Pharmacokinetic study of lipids in plasma, liver and spleen (compound 18, compound 25, MC3)
- experimental-context: male, Sprague-Dawley, rat, spleen, iv
measurement-name: AUC
Value and unit, in that order.

INPUT: Give me measured AUC, please, for this compound: CCCCCC=CCC=CCCCCCCCCC(CCCCCCCCC=CCC=CCCCCC)OC(=O)CCCN(C)C (stereo not shown) [MC3, reference compound]
OUTPUT: 787 µg·h/mL

----------
- test: Chemical stability of lipids in ethanol at room temperature and 37° C. (lipid purity)
- Assay type: physicochemical
- experimental-context: 96 h, 37° C.
measurement-name: Lipid Purity, t = 96 h, 37° C. (%)
Note: unit % is implicit; provide only the numeric part.

{"columns": ["compound", "measurement-name", "unit-descriptor", "meas-value"],
 "data": [
  ["CCCCCCCCC(CCCCCCCC)OC(=O)CCCCCCCN(CCO)CCCCCCCC(=O)OC(CCCCCCCC)CCCCCCCC [compound 29]", "Lipid Purity, t = 96 h, 37° C.", "%", 98.10],
  ["CCCCCCCCCOC(=O)CCCCCCCN(CCCCCCCC(=O)OC(CCCCCCCC)CCCCCCCC)CCCNC(=O)C(C)(C)COC [compound 281]", "Lipid Purity, t = 96 h, 37° C.", "%", 96.47],
  ["CCCCCCCCCOC(=O)CCCCCCCN(CCO)CCCCCCCC(=O)OC(CCCCCCCC)CCCCCCCC [Compound 18]", "Lipid Purity, t = 96 h, 37° C.", "%", 95.01]
]}

INPUT: Give me measured Lipid Purity, t = 96 h, 37° C., please, for this compound: CCCCC/C=C\C/C=C\CCCCCCCCN(CCO)CCCCCCCC(=O)OCCCCCCCCC [Compound 136]
OUTPUT: 93.86

INPUT: Give me measured Lipid Purity, t = 96 h, 37° C., please, for this compound: CCCCCCCCCOC(=O)CCCCCCCN(CCCCCCCC(=O)OC(CCCCCCCC)CCCCCCCC)CCN(C)C [Compound 14]
OUTPUT: 91.90

----------
- Tested on: modified luciferase
- test: Luciferase expression in liver, lung, spleen and femur 6 hours after intravenous administration to mice
- Type: in vivo
- experimental-context: liver, 6 hours after intravenous 0.5 mpk, mice
Reported Total Flux, Liver by item:
Answer with a number only.

{"columns": ["compound", "meas-value"],
 "data": [
  ["CCCCCCCCCCCOC(=O)CCCCCN(CCO)CCCCCC(=O)OCCCCCCCCCCC", "1.59E+05"],
  ["CCCCCCCCCOC(=O)CCCCCCCN(CCO)CCCCCCCC(=O)OC(CCC)CCCCCCCC (stereo not shown)", "2.08E+09"],
  ["CCCCCCCCCOC(=O)CCCCCCCN(CCO)CCCCCCCCCOC(=O)C(CCCCCC)CCCCCCCC (stereo not shown)", "1.73E+09"]
]}

Here's the next entry for you.
INPUT: Lab note: modified luciferase assay, enter Total Flux, Liver for CCCCCCCCC(C)OC(=O)CCCCCCCN(CCO)CCCCCCCC(=O)OC(CCCCCCCC)CCCCCCCC (stereo not shown) here
OUTPUT: 1.08E+10

----------
- test: Pharmacokinetic study of lipids in plasma, liver and spleen (compound 18, compound 25, MC3)
- experimental-context: male, Sprague-Dawley, rat, liver, iv
measurement-name: Tmax (h)
Note: unit h is implicit; provide only the numeric part.

INPUT: Give me measured Tmax, please, for this molecule: CCCCCC=CCC=CCCCCCCCCC(CCCCCCCCC=CCC=CCCCCC)OC(=O)CCCN(C)C (stereo not shown) [MC3, reference compound]
OUTPUT: 24

----------
- Tested on: modified luciferase
- test: Luciferase expression in liver, lung, spleen and femur 6 hours after intravenous administration to mice
- Format: in vivo
- experimental-context: liver, 6 hours after intravenous 0.5 mpk, mice
- Procedure: The efficacy of the nanoparticle compositions presented in Table 1A was further evaluated by measuring the expression of modified luciferase in the liver, lung, spleen, and femur upon administration of a given composition. Formulations were administered intravenously to mice (n=3) at a dosage of 0.5 mpk and bioluminescence measured after 6 hours. The standard MC3 formulation and a PBS control were also tested. […]
measurement-name: Total Flux, Liver
Answer with a number only.

INPUT: Lab note: modified luciferase assay, enter Total Flux, Liver for CCCCCCCCCOC(=O)CCCCCCCN(CCO)CCCCCCCCCOP(=O)(OCCCCCCCCC)OCCCCCCCCC [Compound 127] here
OUTPUT: 1.94E+08

INPUT: Lab note: modified luciferase assay, enter Total Flux, Liver for CCCCCCCCCOC(=O)CCCCCCCN(CCCCCCCC(=O)OC(CCCCCCCC)CCCCCCCC)CCCOC [Compound 16] here
OUTPUT: 3.17E+07

INPUT: Lab note: modified luciferase assay, enter Total Flux, Liver for CCCCCCCCCOC(=O)CCCCCCCN(CCCCCCCC(=O)OC(CCCCCCCC)CCCCCCCC)CCCNC(=S)N(C)C [Compound 111] here
OUTPUT: 4.83E+09

INPUT: Lab note: modified luciferase assay, enter Total Flux, Liver for CCCCCCCC/C=C\COC(=O)CCCCCN(CCO)CCCCCC(=O)OC/C=C\CCCCCCCC [Compound 140] here
OUTPUT: 4.21E+05

----------
- test: Pharmacokinetic study of lipids in plasma, liver and spleen (compound 18, compound 25, MC3)
- experimental-context: male, Sprague-Dawley, rat, liver, iv
measurement-name: Cmax (ng/mL)
Note: unit ng/mL is implicit; provide only the numeric part.

INPUT: Give me measured Cmax, please, for this compound: CCCCCC=CCC=CCCCCCCCCC(CCCCCCCCC=CCC=CCCCCC)OC(=O)CCCN(C)C (stereo not shown) [MC3, reference compound]
OUTPUT: 33000

----------
- test: Clinical chemistry and hematology in rat 48 h after intravenous 2 mpk dose
- Assay type: in vivo
- experimental-context: 48 h post dose
// boundary case: Concentration, Monocytes equal to 2000 maps to -1; strictly smaller maps to 1

{"columns": ["compound", "qualitative-label"],
 "data": [
  ["CCCCCCCCCCCOC(=O)CCCCCN(CCO)CCCCCCCC(=O)OC(CCCCCCCC)CCCCCCCC", -1],
  ["CCCCCCCCCOC(=O)CCCCCCCN(CCO)CCCCCCCOC(=O)C(CCCCCCCC)CCCCCCCC", 1],
  ["CCCCCCCCCN(CCO)CCCCCCCC(=O)OC(CCCCCCCC)CCCCCCCC", -1],
  ["CCCCCC/C=C\\COC(=O)CCCCCCCN(CCO)CCCCCCCC(=O)OC(CCCCCCCC)CCCCCCCC", 1]
]}

In the following, a different compound is considered.
INPUT: Field: below-cutoff. Rule: recorded Concentration, Monocytes strictly less than 2000. Subject: CCCCCC=CCC=CCCCCCCCCC(CCCCCCCCC=CCC=CCCCCC)OC(=O)CCCN(C)C (centres unmarked) [MC3, reference compound]
OUTPUT: 1

----------
Reported Cytokine induction, IL-6 by item:
- Tested on: IL-6, IP-10
- test: Cytokine induction (IL-6, IP-10) in mice 6 hours after intravenous administration
- Type: in vivo
- Parameters: unit not given here
- experimental-context: intravenous 0.5 mpk
Answer with a number only.

See these solved cases before continuing.
{"columns": ["molecule", "target-under-test", "Cytokine induction, IL-6"],
 "data": [
  ["CCCCCCCCCOC(=O)CCCCCCCN(CCCCCCCC(=O)OC(CCCCCCCC)CCCCCCCC)C[C@@H](C)O [Compound 11]", "IL-6, IP-10", 0.14],
  ["CCCCCCCCCN(CCO)CCCCCCCC(=O)OC(CCCCCCCC)CCCCCCCC [Compound 3]", "IL-6, IP-10", 282.88],
  ["CCCCCCCCCOC(=O)CCCCCCCN(CCCCCCCC(=O)OC(CCCCCCCC)CCCCCCCC)C[C@H](C)O [Compound 12]", "IL-6, IP-10", 3.88]
]}

Here's the next entry for you.
INPUT: Lab note: IL-6, IP-10 assay, enter Cytokine induction, IL-6 for CCCCCCCCCOC(=O)CCCCCCCN(CCCCCCCC(=O)OC(CCCCCCCC)CCCCCCCC)CCOC(C)=O [Compound 9] here
OUTPUT: 317.45

----------
- test: Clinical chemistry and hematology in rat 48 h after intravenous 2 mpk dose
- Type: in vivo
- experimental-context: 48 h post dose
If the reported Concentration, Neutrophils equals or exceeds 3000, assign criterion met. If not, assign criterion not met.

INPUT: Decide: Concentration, Neutrophils of CCCCCCCCCOC(=O)CCCCCCCN(CCO)CCCCCCCOC(=O)C(CCCCCCCC)CCCCCCCC [Compound 30] >= 3000?
OUTPUT: criterion met

INPUT: Decide: Concentration, Neutrophils of CCCCCC/C=C\COC(=O)CCCCCCCN(CCO)CCCCCCCC(=O)OC(CCCCCCCC)CCCCCCCC [Compound 24] >= 3000?
OUTPUT: criterion not met

INPUT: Decide: Concentration, Neutrophils of CCCCCCCCCCCOC(=O)CCCCCN(CCO)CCCCCCCC(=O)OC(CCCCCCCC)CCCCCCCC [Compound 25] >= 3000?
OUTPUT: criterion not met

INPUT: Decide: Concentration, Neutrophils of CCCCCCCCCN(CCO)CCCCCCCC(=O)OC(CCCCCCCC)CCCCCCCC [Compound 3] >= 3000?
OUTPUT: criterion met

INPUT: Decide: Concentration, Neutrophils of CCCCCC=CCC=CCCCCCCCCC(CCCCCCCCC=CCC=CCCCCC)OC(=O)CCCN(C)C (centres unmarked) [MC3, reference compound] >= 3000?
OUTPUT: criterion met
